Can you tell me pIC50 for the items I'm about to list?
- target or test system: CDK12/CycK (Homo sapiens, UniProt Q9NYV4)
- Sequence (Q9NYV4 with tags, fused parts or gaps, one chain of several): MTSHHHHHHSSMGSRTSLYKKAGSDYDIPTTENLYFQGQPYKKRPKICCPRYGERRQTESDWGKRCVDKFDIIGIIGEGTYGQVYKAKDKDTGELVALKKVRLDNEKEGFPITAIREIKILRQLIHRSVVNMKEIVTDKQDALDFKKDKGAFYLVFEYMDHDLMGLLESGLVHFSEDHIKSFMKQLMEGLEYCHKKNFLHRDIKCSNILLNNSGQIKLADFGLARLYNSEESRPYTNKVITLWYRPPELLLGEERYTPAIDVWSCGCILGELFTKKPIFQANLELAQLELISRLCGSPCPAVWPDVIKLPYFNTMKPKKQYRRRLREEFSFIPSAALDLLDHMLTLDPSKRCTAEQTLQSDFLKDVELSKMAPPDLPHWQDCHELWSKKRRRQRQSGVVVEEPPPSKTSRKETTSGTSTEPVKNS
- method notes: CDK12/CycK high ATP kinase assay (TR-FRET, 2 mM ATP)
- experimental setup: 2 mM ATP (high ATP); median; read-out: CDK12/CyclinK, 2 mM ATP (high ATP), IC50-[mol/l] (median)
One number for each entry, as −log10 of the molar value.

compound: FC(F)(F)c1cccc(-c2cnc(CNc3nc(N4CCOCC4)nc4c(Br)cnn34)[nH]2)c1 [Example 83]
experimental result: 5.98
//
compound: CC(C)c1cnn2c(NCc3nc4ccccc4[nH]3)nc(NCC(C)(C)O)nc12 [Example 10]
experimental result: 5.06
//
compound: OC[C@@H]1CCCCN1c1nc(NCc2nc3c(F)c(F)ccc3[nH]2)n2ncc(C3CC3)c2n1 [Example 184]
experimental result: 7.88

Please turn your attention to the following entry.
Data request: Return pIC50 for the following compound: CCNc1nc(NCc2nc3ccccc3[nH]2)n2ncc(Br)c2n1 [Example 227]
Data returned: 5.02

* * *

- target or test system: CDK2/CycE (Homo sapiens, UniProt P24941)
- method notes: CDK2/CycE kinase assay (TR-FRET, 2 mM ATP)
- experimental setup: 2 mM ATP (high ATP); median; read-out: CDK2/CyclinE, 2 mM ATP (high ATP), IC50 (median)
- Description: CDK2/CycE-inhibitory activity of compounds of the present invention was quantified employing the CDK2/CycE TR-FRET assay as described in the following paragraphs. […] The resulting mixture was incubated 1 h at 22° C. to allow the formation of complex between the phosphorylated biotinylated peptide and the detection reagents. Subsequently the amount of phosphorylated substrate was evaluated by measurement of the resonance energy transfer from the Eu-chelate to the streptavidine-XL. […]
measured quantity: IC50 (µM)
One number for each entry, in µM.

Example entries and their recorded answers appear below.
compound: Fc1cc2nc(CNc3nc(N4C[C@H]5CC[C@@H](C4)N5)nc4c(C5CC5)cnn34)[nH]c2cc1Cl [Example 328]
measured quantity: IC50
experimental result: 14.5
--
compound: Brc1cnn2c(NCc3nnc(-c4ccccc4)[nH]3)nc(N3C[C@@H]4C[C@H]3CO4)nc12 [Example 120]
measured quantity: IC50
experimental result: 15.4
--
compound: OC[C@@H]1CCCCN1c1nc(NCc2nnc(-c3ccccc3)[nH]2)n2ncc(Br)c2n1 [Example 70]
measured quantity: IC50
experimental result: 1.54
--
compound: FC(F)(F)Oc1cccc2[nH]c(CNc3nc(N4CCOCC4)nc4c(Br)cnn34)nc12 [Example 375]
measured quantity: IC50
experimental result: 11.9
--
compound: CC1CN(C)CCN1c1nc(NCc2nc3ccccc3[nH]2)n2ncc(Br)c2n1 (single isomer, unassigned; enantiomer 2) [Example 261]
measured quantity: IC50
experimental result: 7.29
--
compound: CCc1cnn2c(NCc3nc4c(F)c(F)ccc4[nH]3)nc(N3CCN(C)CC3)nc12.O=CO [Example 435]
measured quantity: IC50
experimental result: 5
--
compound: Brc1cnn2c(NCc3nc4ccccc4[nH]3)nc(N3CCN4CCC[C@@H]4C3)nc12 [Example 149]
measured quantity: IC50
experimental result: 6.38
--
compound: Brc1cnn2c(NCc3nc4ccccc4[nH]3)nc(N3CC4CCC3CN4)nc12 (stereo not shown) [Example 220]
measured quantity: IC50
experimental result: 0.908

For every listed record, write down its IC50.
1. C[C@H]1COCCN1c1nc(NCc2nc3ccccc3[nH]2)n2ncc(Br)c2n1 [Example 57]
2. O=S1(=O)CCN(c2nc(NCc3nc4ccccc4[nH]3)n3ncc(Br)c3n2)CC1 [Example 166]
3. CC(C)c1cnn2c(NCc3nc4ccccc4[nH]3)nc(N(C)CC(C)(C)O)nc12 [Example 5]

Data returned:
1.22
4.7
1.36

* * *

Assignment: determine reported DC50 for the given molecules.
- target or test system: CYCLIN K (nuclear staining in CAL-120 cells) (Homo sapiens, UniProt O75909)
- Construct: endogenous in cells; host or cells: CAL-120 human breast cancer cells (DSMZ ACC 459)
- Sequence (O75909 whole entry): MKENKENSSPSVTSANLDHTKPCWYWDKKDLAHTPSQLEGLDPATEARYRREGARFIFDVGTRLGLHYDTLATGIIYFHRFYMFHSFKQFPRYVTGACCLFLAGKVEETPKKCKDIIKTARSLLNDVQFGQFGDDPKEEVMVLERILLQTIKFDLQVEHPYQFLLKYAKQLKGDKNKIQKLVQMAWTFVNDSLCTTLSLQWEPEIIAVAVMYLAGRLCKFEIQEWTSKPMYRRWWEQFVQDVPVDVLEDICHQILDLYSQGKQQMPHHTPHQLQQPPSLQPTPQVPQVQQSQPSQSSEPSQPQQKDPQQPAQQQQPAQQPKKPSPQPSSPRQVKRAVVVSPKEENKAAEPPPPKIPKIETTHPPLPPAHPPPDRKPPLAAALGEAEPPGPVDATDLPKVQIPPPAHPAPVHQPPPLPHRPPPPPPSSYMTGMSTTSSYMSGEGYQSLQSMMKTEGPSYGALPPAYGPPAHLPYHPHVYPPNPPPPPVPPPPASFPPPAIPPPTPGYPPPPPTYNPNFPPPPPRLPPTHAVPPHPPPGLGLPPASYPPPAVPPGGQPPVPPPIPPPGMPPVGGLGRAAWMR
- Sequence (Q9NYV4 whole entry partner): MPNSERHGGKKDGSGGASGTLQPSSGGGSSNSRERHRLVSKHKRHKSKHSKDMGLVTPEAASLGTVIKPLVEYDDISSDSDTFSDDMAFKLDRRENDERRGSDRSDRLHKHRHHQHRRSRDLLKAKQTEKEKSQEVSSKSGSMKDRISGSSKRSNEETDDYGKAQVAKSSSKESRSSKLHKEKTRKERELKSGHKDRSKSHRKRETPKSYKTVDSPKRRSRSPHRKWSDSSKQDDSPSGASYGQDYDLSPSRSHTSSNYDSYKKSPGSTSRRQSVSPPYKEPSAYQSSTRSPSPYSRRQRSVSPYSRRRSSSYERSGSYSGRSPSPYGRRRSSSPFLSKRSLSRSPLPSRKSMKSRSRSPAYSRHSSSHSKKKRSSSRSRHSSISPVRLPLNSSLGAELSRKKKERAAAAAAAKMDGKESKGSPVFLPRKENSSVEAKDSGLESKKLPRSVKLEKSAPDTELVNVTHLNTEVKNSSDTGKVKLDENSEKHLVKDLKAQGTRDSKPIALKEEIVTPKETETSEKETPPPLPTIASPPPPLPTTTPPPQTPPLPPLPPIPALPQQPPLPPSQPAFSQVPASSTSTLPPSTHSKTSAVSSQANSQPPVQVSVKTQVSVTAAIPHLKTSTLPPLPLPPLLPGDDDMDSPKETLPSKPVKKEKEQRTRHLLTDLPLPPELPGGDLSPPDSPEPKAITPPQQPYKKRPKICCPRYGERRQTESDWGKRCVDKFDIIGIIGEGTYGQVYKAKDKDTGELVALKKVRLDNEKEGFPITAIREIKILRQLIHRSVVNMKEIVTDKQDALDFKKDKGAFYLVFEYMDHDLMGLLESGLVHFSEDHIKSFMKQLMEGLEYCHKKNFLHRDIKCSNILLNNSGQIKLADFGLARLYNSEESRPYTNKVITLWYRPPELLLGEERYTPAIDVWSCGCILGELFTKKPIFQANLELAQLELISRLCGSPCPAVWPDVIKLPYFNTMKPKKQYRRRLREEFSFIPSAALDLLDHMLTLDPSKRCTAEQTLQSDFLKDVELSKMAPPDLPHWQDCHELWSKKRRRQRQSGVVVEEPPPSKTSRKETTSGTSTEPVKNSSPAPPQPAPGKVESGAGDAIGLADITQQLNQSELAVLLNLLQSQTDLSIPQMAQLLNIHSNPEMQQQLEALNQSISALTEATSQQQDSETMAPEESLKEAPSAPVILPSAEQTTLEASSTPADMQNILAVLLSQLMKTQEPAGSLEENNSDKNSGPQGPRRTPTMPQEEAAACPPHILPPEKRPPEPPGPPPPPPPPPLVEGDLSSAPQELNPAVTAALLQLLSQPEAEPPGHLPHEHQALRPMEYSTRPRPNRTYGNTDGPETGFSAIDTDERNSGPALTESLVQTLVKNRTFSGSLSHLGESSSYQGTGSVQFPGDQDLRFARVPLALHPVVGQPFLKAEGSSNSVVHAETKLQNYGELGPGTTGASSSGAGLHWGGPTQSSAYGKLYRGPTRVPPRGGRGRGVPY
- method notes: CYCLIN K nuclear protein level: immunofluorescence high content analysis (CAL-120)
- Assay type: cell-based
- experimental setup: 24 h, 50% reduction of nuclear CCNK staining intensity, median, read-out: CYCLIN K degradation IF, DC50-[mol/l] (median)
Numbers only, in nM.

Can you give me DC50 for all of these, one by one?
1. CN(CC(C)(C)O)c1nc(NCc2nc3cc(Cl)c(Cl)cc3[nH]2)n2ncc(C3CC3)c2n1
2. Fc1ccc2[nH]c(CNc3nc(N4CCOCC4)nc4c(C(F)(F)F)cnn34)nc2c1F
3. CC(C)(O)COc1nc(NCc2nc3ccccc3[nH]2)n2ncc(Br)c2n1

Data returned:
1: 0.642; 2: 0.511; 3: 10.4

* * *

Give log10 DC50 for every item shown.
- target or test system: CDK12 (nuclear staining in CAL-120 cells) (Homo sapiens, UniProt Q9NYV4)
- Construct: endogenous in cells; host or cells: CAL-120 human breast cancer cells (DSMZ ACC 459)
- method notes: CDK12 nuclear protein level: immunofluorescence/high content analysis (CAL-120)
- Type: cell-based
- experimental setup: CAL-120 cells, 24 h, immunofluorescence; 50% reduction of nuclear CDK12 staining intensity; median; read-out: CDK12 degradation IF, DC50- [mol/l] (median)
Heads up, the numbers here are log10 of DC50 in nM units.

chemical string: Fc1cccc2[nH]c(CNc3nc(N4CCOCC4)nc4c(C5CC5)cnn34)nc12
target or test system: CDK12 (nuclear staining in CAL-120 cells) (Homo sapiens, UniProt Q9NYV4)
log10 DC50: 0.10

chemical string: Brc1cnn2c(NCc3nnc(-c4ccccc4)[nH]3)nc(N3CCCCC3)nc12
target or test system: CDK12 (nuclear staining in CAL-120 cells) (Homo sapiens, UniProt Q9NYV4)
log10 DC50: 1.62

Batch: log10 DC50 for all items listed.
1. Fc1cc2nc(CNc3nc(N4CC5CCC(C4)N5)nc4c(Br)cnn34)[nH]c2cc1F
2. Brc1cnn2c(NCc3nc4ccccc4[nH]3)nc(N3CCN4CCC[C@@H]4C3)nc12
3. Fc1cccc(-c2nnc(CNc3nc(N4CCOCC4)nc4c(C(F)(F)F)cnn34)[nH]2)c1
4. Fc1ccc2[nH]c(CNc3nc(N4CCOCC4)nc4c(Cl)cnn34)nc2c1F
5. COc1ccccc1-c1nnc(CNc2nc(N3CCOCC3)nc3c(Br)cnn23)[nH]1
6. CN1CCN(c2nc(NCc3nc4c(F)cccc4[nH]3)n3ncc(Cl)c3n2)CC1.O=CO

Data returned:
1.37
1.10
0.96
0.59
0.71
0.89

* * *

- target or test system: CDK9/CycT1 (Homo sapiens, UniProt P50750)
- Construct: Recombinant full-length His-tagged human CDK9 and CycT1; purchased Life Technologies PV4131; host or cells: insect cells
- Sequence (P50750 whole entry): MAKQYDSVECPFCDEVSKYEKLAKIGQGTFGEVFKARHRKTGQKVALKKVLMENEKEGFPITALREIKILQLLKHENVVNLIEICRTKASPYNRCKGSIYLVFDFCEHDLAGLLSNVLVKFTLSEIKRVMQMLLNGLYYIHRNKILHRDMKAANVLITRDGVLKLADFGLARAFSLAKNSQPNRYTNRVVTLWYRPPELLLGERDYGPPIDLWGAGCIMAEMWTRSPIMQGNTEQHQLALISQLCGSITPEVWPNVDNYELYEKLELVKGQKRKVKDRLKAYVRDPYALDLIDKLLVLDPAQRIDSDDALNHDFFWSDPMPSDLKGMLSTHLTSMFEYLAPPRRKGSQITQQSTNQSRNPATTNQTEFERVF
- Sequence (O60563 whole entry partner): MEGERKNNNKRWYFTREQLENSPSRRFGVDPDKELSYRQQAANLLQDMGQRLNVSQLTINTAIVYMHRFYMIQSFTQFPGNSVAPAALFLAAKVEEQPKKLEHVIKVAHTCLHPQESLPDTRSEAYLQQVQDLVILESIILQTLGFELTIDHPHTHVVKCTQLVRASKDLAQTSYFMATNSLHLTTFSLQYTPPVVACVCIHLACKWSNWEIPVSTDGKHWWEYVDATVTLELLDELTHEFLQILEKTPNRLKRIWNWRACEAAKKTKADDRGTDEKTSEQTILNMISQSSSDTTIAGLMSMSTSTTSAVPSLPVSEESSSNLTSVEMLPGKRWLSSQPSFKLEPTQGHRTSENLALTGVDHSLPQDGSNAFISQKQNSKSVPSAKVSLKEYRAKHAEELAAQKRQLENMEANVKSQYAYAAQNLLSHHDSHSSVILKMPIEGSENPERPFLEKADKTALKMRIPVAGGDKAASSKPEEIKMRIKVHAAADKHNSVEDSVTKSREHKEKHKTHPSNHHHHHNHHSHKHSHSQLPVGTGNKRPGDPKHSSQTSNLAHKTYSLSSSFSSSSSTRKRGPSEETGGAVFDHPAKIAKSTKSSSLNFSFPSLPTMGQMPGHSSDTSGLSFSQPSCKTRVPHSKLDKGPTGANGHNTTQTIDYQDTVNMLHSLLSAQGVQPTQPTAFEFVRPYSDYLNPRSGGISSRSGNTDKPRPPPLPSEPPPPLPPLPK
- method notes: CDK9/CycT1 high ATP kinase assay (TR-FRET, 2 mM ATP)
- Type: biochemical
- experimental setup: 2 mM ATP (high ATP); median; read-out: CDK9/CyclinT1, 2 mM ATP (high ATP), IC50 (median)
measured quantity: IC50

Sample answers from the record:
compound: COc1cccc(-c2nnc(CNc3nc(N4CCOCC4)nc4c(Br)cnn34)[nH]2)c1 [Example 50]
target or test system: CDK9/CycT1 (Homo sapiens, UniProt P50750)
IC50: 2.01 µM
//
compound: FC(F)Cc1cnn2c(NCc3nc4ccccc4[nH]3)nc(N3CCOCC3)nc12.O=C(O)C(F)(F)F [Example 444]
target or test system: CDK9/CycT1 (Homo sapiens, UniProt P50750)
IC50: > 20 µM

Batch request: IC50 for each of the following compounds.
1. COc1ccccc1-c1cnc(CNc2nc(N3CCOCC3)nc3c(Br)cnn23)[nH]1 [Example 87]
2. Brc1cnn2c(NCc3nc4ccccc4[nH]3)nc(OC3CCOCC3)nc12 [Example 405]

Data returned:
1: 5.13 µM; 2: > 20 µM

* * *

- target or test system: CDK12/CycK (Homo sapiens, UniProt Q9NYV4)
- method notes: CDK12/CycK high ATP kinase assay (TR-FRET, 2 mM ATP)
- experimental setup: 2 mM ATP (high ATP); median; read-out: CDK12/CyclinK, 2 mM ATP (high ATP), IC50-[mol/l] (median)
measured quantity: pIC50
One number for each entry, as −log10 of the molar value.

These recorded examples may help you get a feel for the data.
chemical string: C[C@@H]1CN(c2nc(NCc3nc4ccccc4[nH]3)n3ncc(Br)c3n2)CCN1
pIC50: 5.24
--
chemical string: N#Cc1cccc(-c2nnc(CNc3nc(N4CCOCC4)nc4c(Br)cnn34)[nH]2)c1
pIC50: 6.11
--
chemical string: CC1(C)CN(c2nc(NCc3nnc(-c4ccccc4)[nH]3)n3ncc(Br)c3n2)CCO1
pIC50: 5.26
--
chemical string: COc1ccc2[nH]c(CNc3nc(N4CCOCC4)nc4c(Br)cnn34)nc2c1
pIC50: 5.91

Now take the following compound into account.
Data request: Entry Cc1cccc2[nH]c(CNc3nc(N4CCN(C)CC4)nc4c(Br)cnn34)nc12 needs its pIC50 filled in; supply it.
Data returned: 5.37
